- Test system: SUDIPGXIII (diffuse intrinsic pontine glioma line)
- test summary: growth inhibition (% activity, log2 RLU normalised to DMSO / staurosporine); higher = more growth inhibition
- particulars: 33 µM
readout: growth inhibition (%)
Give bare numbers, in %.

# compound, growth inhibition (%)
rows = [
    ("CC(=O)OC1CN2CCC1CC2 (stereo unspecified)", 0.846),
    ("CN(C)C(=O)Oc1cccc([N+](C)(C)C)c1", 1.72),
    ("CNC(=O)Oc1ccc2c(c1)[C@]1(C)CCN(C)[C@@H]1N2C", 1.12),
    ("CCN(C)C(=O)Oc1cccc([C@H](C)N(C)C)c1", -0.000881),
]

Please give growth inhibition for each item listed below.
1. CCC1(C)CC(=O)NC(=O)C1
2. CC[C@@]1(O)C(=O)OCc2c1cc1n(c2=O)Cc2cc3ccccc3nc2-1
3. C[C@@H]1O[C@@H](O[C@H]2C[C@@H](O)[C@]3(CO)[C@H]4[C@H](O)C[C@]5(C)[C@@H](C6=CC(=O)OC6)CC[C@]5(O)[C@@H]4CC[C@]3(O)C2)[C@H](O)[C@H](O)[C@H]1O
4. CC(C)NCC(O)c1ccccc1Cl (stereo unspecified)
5. C#C[C@]1(O)CC[C@H]2[C@@H]3CCC4=CC(=O)CC[C@]4(C)[C@H]3CC[C@@]21C

OUT:
-0.846
2.77
45.3
-0.265
0.296

Please give growth inhibition for each item listed below.
1. COc1ccc(C(CN(C)C)C2(O)CCCCC2)cc1 (stereo unspecified)
2. CNCC(=O)c1ccc(O)c(O)c1
3. CC(O)(CS(=O)(=O)c1ccc(F)cc1)C(=O)Nc1ccc(C#N)c(C(F)(F)F)c1 (stereo unspecified)

OUT:
-0.0836
3.12
1.16

This collection of values is drawn from the supplement of paper PMC8253809.
